Data credit: PubChem BioAssay

experiment: circadian clock period modulators, cell-based, LOPAC library, luminescence reporter (AID 2774); settings: circadian reporter cells, at 7 µM, actives lie on both sides
Calls of active or inactive are those of the source. The rule behind the calls is not given here.
Give one outcome, nothing more. List: active, inactive

Per the assay record, what outcome was assigned to `CC(=O)OCC(=O)[C@@]1(O)CC[C@H]2[C@@H]3CCC4=CC(=O)CC[C@]4(C)[C@H]3C(=O)C[C@@]21C` ?
inactive

Per the assay record, what outcome was assigned to CC(N=C(NC#N)Nc1ccncc1)C(C)(C)C (stereo not given) ?
inactive

Per the assay record, what outcome was assigned to `CN(C)CCCN1c2ccccc2CCc2ccccc21` ?
inactive

Per the assay record, what outcome was assigned to Cc1c(OCC(F)(F)F)ccnc1CS(=O)c1nc2ccccc2[nH]1 (stereo not given) ?
inactive

Per the assay record, what outcome was assigned to `Nc1c2c(nc3ccccc13)CCCC2` ?
inactive

Per the assay record, what outcome was assigned to `NS(=O)(=O)c1cc2c(cc1Cl)NCNS2(=O)=O` ?
inactive

Per the assay record, what outcome was assigned to CC(COc1ccccc1)N(CCCl)Cc1ccccc1 (stereo not given) ?
inactive

Per the assay record, what outcome was assigned to `CC(=O)CCCCn1c(=O)c2c(ncn2C)n(C)c1=O` ?
inactive

Per the assay record, what outcome was assigned to `CCCNC(=O)NS(=O)(=O)c1ccc(Cl)cc1` ?
inactive

Per the assay record, what outcome was assigned to `CCN(CC)CC(=O)Nc1c(C)cccc1C` ?
inactive

Per the assay record, what outcome was assigned to CC1=C(CC(=O)O)c2cc(F)ccc2/C1=C\c1ccc(S(C)=O)cc1 (stereo not given) ?
inactive

Per the assay record, what outcome was assigned to `CCCCNc1cc(C(=O)O)cc(S(N)(=O)=O)c1Oc1ccccc1` ?
inactive

Per the assay record, what outcome was assigned to `NS(=O)(=O)c1cc2c(cc1Cl)NC=NS2(=O)=O` ?
inactive

Per the assay record, what outcome was assigned to O=C1CCC(N2C(=O)c3ccccc3C2=O)C(=O)N1 (stereo not given) ?
inactive

Per the assay record, what outcome was assigned to `Cc1ccc(Cl)c(Nc2ccccc2C(=O)O)c1Cl` ?
inactive

Per the assay record, what outcome was assigned to `CC(=O)Nc1nnc(S(N)(=O)=O)s1` ?
inactive

Per the assay record, what outcome was assigned to `OCCN(CCO)c1nc(N2CCCCC2)c2nc(N(CCO)CCO)nc(N3CCCCC3)c2n1` ?
inactive

Per the assay record, what outcome was assigned to O=C(c1ccccc1)c1ccc2n1CCC2C(=O)O (stereo not given) ?
inactive

Per the assay record, what outcome was assigned to `O=c1n(CCCN2CCN(c3cccc(Cl)c3)CC2)nc2ccccn12` ?
inactive

Per the assay record, what outcome was assigned to CCN(CC)CCCC(C)Nc1c2ccc(Cl)cc2nc2ccc(OC)cc12 (stereo not given) ?
inactive

Per the assay record, what outcome was assigned to `CNCCCC12CCC(c3ccccc31)c1ccccc12` ?
inactive

Per the assay record, what outcome was assigned to `COc1ccccc1N1CCN(CCCNc2cc(=O)n(C)c(=O)n2C)CC1` ?
inactive

Per the assay record, what outcome was assigned to `Clc1cccc(Cl)c1NC1=NCCN1` ?
inactive

Per the assay record, what outcome was assigned to `CNC(=O)Oc1ccc2c(c1)[C@]1(C)CCN(C)[C@@H]1N2C` ?
inactive

Per the assay record, what outcome was assigned to `CN=C(NC#N)NCCSCc1nc[nH]c1C` ?
inactive

Per the assay record, what outcome was assigned to `O=C1NC(=O)C(c2ccccc2)(c2ccccc2)N1` ?
inactive

Per the assay record, what outcome was assigned to `O=c1[nH]cc(F)c(=O)[nH]1` ?
inactive

Per the assay record, what outcome was assigned to O=C(C1CCCCC1)N1CC(=O)N2CCc3ccccc3C2C1 (stereo not given) ?
inactive

Per the assay record, what outcome was assigned to c1ccc2c(c1)CCCC2C1=NCCN1 (stereo not given) ?
inactive

Per the assay record, what outcome was assigned to `CCC1(c2ccccc2)C(=O)NCNC1=O` ?
inactive

Per the assay record, what outcome was assigned to `NC12CC3CC(CC(C3)C1)C2` ?
inactive

Per the assay record, what outcome was assigned to `Nc1nc2c(ncn2COCCO)c(=O)[nH]1` ?
inactive

Per the assay record, what outcome was assigned to `CN(C)CC/C=C1\c2ccccc2COc2ccccc21` ?
inactive

Per the assay record, what outcome was assigned to CC(C)Cc1ccc(C(C)C(=O)O)cc1 (stereo not given) ?
inactive

Per the assay record, what outcome was assigned to `CC(C)C(=O)Nc1ccc([N+](=O)[O-])c(C(F)(F)F)c1` ?
inactive

Per the assay record, what outcome was assigned to CCCNCC(O)COc1ccccc1C(=O)CCc1ccccc1 (stereo not given) ?
inactive

Per the assay record, what outcome was assigned to `NNCCc1ccccc1` ?
inactive

Per the assay record, what outcome was assigned to CSc1ccc2c(c1)N(CCC1CCCCN1C)c1ccccc1S2 (stereo not given) ?
inactive

Per the assay record, what outcome was assigned to `C[C@]12CCC(=O)C=C1CC[C@@H]1[C@@H]2[C@@H](O)C[C@@]2(C)[C@H]1CC[C@]2(O)C(=O)CO` ?
inactive

Per the assay record, what outcome was assigned to CCCNC(C)C(=O)Nc1ccccc1C (stereo not given) ?
inactive

Per the assay record, what outcome was assigned to CC(C[N+](C)(C)C)OC(N)=O (stereo not given) ?
inactive

Per the assay record, what outcome was assigned to `CN(C)C(=O)Oc1ccc[n+](C)c1` ?
inactive

Per the assay record, what outcome was assigned to `CCN(CC)C(=S)SSC(=S)N(CC)CC` ?
inactive

Per the assay record, what outcome was assigned to `CC[N+](C)(C)c1cccc(O)c1` ?
inactive

Per the assay record, what outcome was assigned to `O=C1c2c(O)ccc(O)c2C(=O)c2c(NCCNCCO)ccc(NCCNCCO)c21` ?
active

Per the assay record, what outcome was assigned to CCc1cccc2c3c([nH]c12)C(CC)(CC(=O)O)OCC3 (stereo not given) ?
inactive

Per the assay record, what outcome was assigned to CCN(Cc1ccncc1)C(=O)C(CO)c1ccccc1 (stereo not given) ?
inactive

Per the assay record, what outcome was assigned to `Clc1ccc2c(c1)C(N1CCNCC1)=Nc1ccccc1O2` ?
inactive

Per the assay record, what outcome was assigned to `CCOC(=O)N1CCC(=C2c3ccc(Cl)cc3CCc3cccnc32)CC1` ?
inactive

Per the assay record, what outcome was assigned to `CC1=NS(=O)(=O)c2cc(Cl)ccc2N1` ?
inactive
